These entries and their values trace back to PubChem BioAssay (NCI).

System: NCI-H522 lung
protocol text: NCI tumour cell line growth inhibition, 48 h
readout name: TGI

For orientation, consider the following solved cases.
[[record]]
molecule = "O=c1nc(-c2ccccc2)cc(-c2ccccc2O)[nH]1"
target_under_test = "NCI-H522 lung"
observed_value = "> 100 µM"

[[record]]
molecule = "O=[N+]([O-])c1ccc(CSCc2ccc(Cl)cc2)cc1"
target_under_test = "NCI-H522 lung"
observed_value = "> 100 µM"

[[record]]
molecule = "CCN(CC)CCNC(=O)c1ccc(C)c(OCc2ccccc2)c1[N+](=O)[O-]"
target_under_test = "NCI-H522 lung"
observed_value = "76.5 µM"

[[record]]
molecule = "COc1cc([C@@H]2c3cc4c(cc3[C@@H](c3c(O)cc(O)c5c3O[C@H](c3ccc(O)c(O)c3)[C@@H](O)C5)[C@H]3COC(=O)[C@H]23)OCO4)cc(OC)c1O"
target_under_test = "NCI-H522 lung"
observed_value = "> 100 µM"

[[record]]
molecule = "N#CC(C(=O)CCC(=O)Nc1cccc(C(F)(F)F)c1)c1ccc(Cl)cc1 (configuration not stated)"
target_under_test = "NCI-H522 lung"
observed_value = "> 100 µM"

[[record]]
molecule = "CCN1C(=O)N(CC)C2Nn3c(s/c(=C4\\C(=O)N(C)c5ccccc54)c3=O)=NC21 (configuration not stated)"
target_under_test = "NCI-H522 lung"
observed_value = "> 100 µM"


Ask: GET TGI where system = NCI-H522 lung and item = "CCN(CC)c1cc2oc3cc(N)cc(=N)c-3nc2cc1C"
Reply: 6.05 µM
